Measured target: human GRF receptor (Homo sapiens, UniProt Q02643)
Construct: expressed in transfected cells
Sequence (Q02643 23-423): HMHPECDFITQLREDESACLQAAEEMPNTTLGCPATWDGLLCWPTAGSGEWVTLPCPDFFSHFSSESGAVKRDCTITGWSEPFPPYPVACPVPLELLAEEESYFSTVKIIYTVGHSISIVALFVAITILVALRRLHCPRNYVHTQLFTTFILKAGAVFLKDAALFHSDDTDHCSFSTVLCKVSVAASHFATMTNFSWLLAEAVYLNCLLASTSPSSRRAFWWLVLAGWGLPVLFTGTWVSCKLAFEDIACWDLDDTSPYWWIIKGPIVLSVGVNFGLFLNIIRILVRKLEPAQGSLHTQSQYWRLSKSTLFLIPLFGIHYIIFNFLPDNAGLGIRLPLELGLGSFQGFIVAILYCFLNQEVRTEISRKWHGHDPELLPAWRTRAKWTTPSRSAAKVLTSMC
Test description: Reporter gene assay in BHK cells (cAMP-inducible alkaline phosphatase)
Type: cell-based
Protocol conditions: 24 h, peptides 10^-5 M to 10^-12 M
pEC50: −log10 of the molar value. *1 amine or outer side, *2 acyl side, *3 side chain or, on linkers, in order; H or OH if unused. [ ]: non-standard residue; d: D form. The star is where a group is joined. βAsp = O=C(O)[C@H](CC(=O)[*:2])N[*:1]; Hexenoyl(3E) = CC/C=C/CC(=O)*
Quantity measured: pEC50

A = {Hexenoyl(3E)}-YADAIFT[βAsp]SYRKVLGQLSARKLLQDIMSRQQGESNQERGARARL-NH2 [TH0601, β-Asp^8 tesamorelin]
B = {Hexenoyl(3E)}-YADAIFTDSYRKVLGQLSARKLLQDIMSRQQGESNQERGARARL-NH2 [TH05111, Asp^8 tesamorelin]
stdin: Pick one, A or B : lowest reported pEC50. Lab note: record the label of whichever item you select.
stdout: A
(A: 7.52, B: 10.10)
